Assayed Target: hNaV1.7 (Homo sapiens, UniProt Q15858)
Construct: expressed in transfected cells; host or cells: HEK293
Sequence (Q15858 whole entry): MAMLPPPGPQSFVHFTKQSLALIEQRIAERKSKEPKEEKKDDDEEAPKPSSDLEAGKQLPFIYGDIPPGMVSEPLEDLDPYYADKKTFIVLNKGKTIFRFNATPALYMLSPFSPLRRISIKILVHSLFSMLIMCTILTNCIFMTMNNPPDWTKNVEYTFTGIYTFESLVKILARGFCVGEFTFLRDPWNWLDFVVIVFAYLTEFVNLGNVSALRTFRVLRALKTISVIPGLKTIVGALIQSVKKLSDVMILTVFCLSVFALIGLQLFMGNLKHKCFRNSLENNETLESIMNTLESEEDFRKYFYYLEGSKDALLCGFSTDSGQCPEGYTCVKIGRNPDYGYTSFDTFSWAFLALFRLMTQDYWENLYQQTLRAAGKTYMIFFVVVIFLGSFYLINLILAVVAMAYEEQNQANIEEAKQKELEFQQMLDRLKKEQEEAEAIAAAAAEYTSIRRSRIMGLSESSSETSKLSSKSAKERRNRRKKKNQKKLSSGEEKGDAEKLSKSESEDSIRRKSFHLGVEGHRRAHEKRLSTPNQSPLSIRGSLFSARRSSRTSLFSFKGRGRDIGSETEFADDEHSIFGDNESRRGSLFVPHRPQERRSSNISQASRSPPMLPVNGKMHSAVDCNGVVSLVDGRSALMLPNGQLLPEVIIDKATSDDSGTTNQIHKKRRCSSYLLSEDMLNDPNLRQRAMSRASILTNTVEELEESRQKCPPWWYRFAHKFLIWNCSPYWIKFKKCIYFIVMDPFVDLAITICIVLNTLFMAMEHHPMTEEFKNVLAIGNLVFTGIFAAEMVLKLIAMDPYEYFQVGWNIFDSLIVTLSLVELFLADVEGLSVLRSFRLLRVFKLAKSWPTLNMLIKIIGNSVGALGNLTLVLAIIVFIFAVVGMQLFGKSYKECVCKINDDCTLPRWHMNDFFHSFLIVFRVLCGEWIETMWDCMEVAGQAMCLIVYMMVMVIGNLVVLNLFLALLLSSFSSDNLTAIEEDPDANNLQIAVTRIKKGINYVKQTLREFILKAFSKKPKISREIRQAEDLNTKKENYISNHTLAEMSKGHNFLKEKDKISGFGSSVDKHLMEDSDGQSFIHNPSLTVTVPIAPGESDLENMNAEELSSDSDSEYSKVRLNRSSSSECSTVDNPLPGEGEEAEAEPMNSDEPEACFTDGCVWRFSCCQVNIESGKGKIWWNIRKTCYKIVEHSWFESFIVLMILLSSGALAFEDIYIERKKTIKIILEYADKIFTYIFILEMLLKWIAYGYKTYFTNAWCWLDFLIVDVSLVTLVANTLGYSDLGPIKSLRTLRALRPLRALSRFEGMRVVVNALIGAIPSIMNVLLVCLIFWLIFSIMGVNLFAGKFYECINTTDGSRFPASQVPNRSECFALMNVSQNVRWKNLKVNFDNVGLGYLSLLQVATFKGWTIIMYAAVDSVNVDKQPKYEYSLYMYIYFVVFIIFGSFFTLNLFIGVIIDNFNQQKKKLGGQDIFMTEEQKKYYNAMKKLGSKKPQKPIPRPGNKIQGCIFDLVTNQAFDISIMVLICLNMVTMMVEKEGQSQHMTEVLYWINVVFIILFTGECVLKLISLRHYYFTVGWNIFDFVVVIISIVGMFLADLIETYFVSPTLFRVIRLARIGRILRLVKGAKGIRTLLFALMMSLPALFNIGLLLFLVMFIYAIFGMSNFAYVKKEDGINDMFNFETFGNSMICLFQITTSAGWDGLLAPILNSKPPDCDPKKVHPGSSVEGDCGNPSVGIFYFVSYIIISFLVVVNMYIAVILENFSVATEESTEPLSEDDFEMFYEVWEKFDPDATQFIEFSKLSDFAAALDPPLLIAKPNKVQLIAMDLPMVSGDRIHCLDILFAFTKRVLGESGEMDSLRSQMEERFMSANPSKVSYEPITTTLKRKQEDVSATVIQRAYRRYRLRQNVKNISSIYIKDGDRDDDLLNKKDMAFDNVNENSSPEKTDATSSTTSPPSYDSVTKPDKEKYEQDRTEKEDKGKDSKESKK
Test Details: QPatch NaV1.7 assay (whole-cell patch clamp, QPatch16x)
Assay type: cell-based
Condition Set: holding voltage −90 mV (most channels closed), HEK293-hNaV1.7 cells, read-out: QP Nav1.7 −90 mV pIC50 (converted)
Where a name gives a salt, the structure may show the parent alone.
Measured Metric: IC50 (µM)

# Compound, Measured Metric, Result Value
measured = [
    ("CCOc1ccc(F)c(-c2ccnc([C@@H]3CC[C@]4(CC(C)(C)NC4=O)N3)c2)c1 [Example 219, hydrochloride]", "IC50", 50.1),
    ("CN1CC[C@@]2(CC[C@H](c3cc(-c4ccc5c(ccn5C)c4)ccn3)N2)C1=O [Example 79, hydrochloride]", "IC50", 398),
    ("CN1CC[C@@]2(CC[C@H](c3cc(-c4ccc(OC(F)(F)F)cc4)ccn3)N2)C1=O [Example 5, hydrochloride]", "IC50", 25.1),
    ("CCOc1ccc(F)c(-c2ccnc([C@@H]3CC[C@@]4(CCCNC4=O)N3)c2)c1 [Example 109, hydrochloride]", "IC50", 2),
    ("CCOc1c(F)cccc1-c1ccnc([C@H]2CC[C@@]3(CCN(C)C3=O)N2)c1 [Example 158, hydrochloride]", "IC50", 1260),
    ("CCOc1cc(-c2ccnc([C@H]3CC[C@@]4(CCN(C)C4=O)N3)c2)c(F)cc1F [Example 149, hydrochloride]", "IC50", 398),
    ("CCOc1cc(-c2cc(C)nc([C@H]3CC[C@@]4(CCN(C)C4=O)N3)c2)c(F)cc1C [Example 202, hydrochloride]", "IC50", 31.6),
    ("CN1CCC[C@]2(CC[C@H](c3cc(-c4ccc(C(F)(F)F)cc4)ccn3)N2)C1=O [Example 70, hydrochloride]", "IC50", 12.6),
    ("CCOc1ccc(F)c(-c2ccnc([C@H]3CC[C@]4(CC(C)(C)NC4=O)N3)c2)c1 [Example 218, hydrochloride]", "IC50", 6.31),
    ("CCOc1ccc(F)c(-c2cc([C@@H]3CC[C@@]4(CCN(C)C4=O)N3)ncc2C)c1 [Example 138, hydrochloride]", "IC50", 200),
    ("CN1CC[C@@]2(CC[C@H](c3cc(-c4cccc5c4OC(F)(F)O5)ccn3)N2)C1=O [Example 81, hydrochloride]", "IC50", 200),
    ("CCOc1ccc(F)c(-c2cc(OC)nc([C@@H]3CC[C@]4(CCN(C)C4=O)N3)c2)c1 (single isomer, unassigned)", "IC50", 31.6),
    ("CN1CC[C@@]2(CC[C@H](c3cc(-c4cc(OC(F)F)ccc4F)ccn3)N2)C1=O [Example 84, hydrochloride]", "IC50", 200),
    ("CCOc1ccc(F)c(-c2cc(C)nc(C3CCC4(CCN(C)C4=O)N3)c2C)c1 (mixture of isomers) [Example 256, hydrochloride]", "IC50", 20),
    ("CCOc1ccc(-c2cc(C)nc([C@@H]3CC[C@@]4(CCN(C)C4=O)N3)c2)cc1 [Example 88, hydrochloride]", "IC50", 316),
    ("Cc1cc(-c2ccc(C(F)(F)F)cc2)cc([C@@H]2CC[C@@]3(CCNC3=O)N2)n1 [Example 97, hydrochloride]", "IC50", 20),
    ("CCOc1ccc(F)c(-c2cc(C)nc([C@@H]3CC[C@]4(CCN(C)C4=O)N3C)c2)c1 [Example 231, hydrochloride]", "IC50", 12.6),
    ("CCCOc1ccc(F)c(-c2cc(C)nc([C@H]3CC[C@@]4(CCN(C)C4=O)N3)c2)c1 [Example 196, hydrochloride]", "IC50", 1.58),
    ("CCOc1ccc(F)c(-c2cc([C@H]3CC[C@@]4(CCN(C)C4=O)N3)ncc2C)c1 [Example 137, hydrochloride]", "IC50", 158),
    ("Cc1c(-c2ccc(C(F)(F)F)cc2)ccnc1[C@H]1CC[C@]2(CCN(C)C2=O)N1 [Example 14, hydrochloride]", "IC50", 63.1),
    ("CCn1ncc2cc(F)c(-c3ccnc([C@H]4CC[C@@]5(CCN(C)C5=O)N4)c3)cc21 [Example 258, hydrochloride]", "IC50", 39800),
    ("CN1CC[C@@]2(CC(F)C(c3cc(-c4ccc(C(F)(F)F)cc4)ccn3)N2)C1=O (single isomer, unassigned) [Example 238, hydrochloride]", "IC50", 50.1),
    ("Cc1cnc([C@@H]2CC[C@]3(CCN(C)C3=O)N2)cc1-c1ccc(C(F)(F)F)cc1 [Example 43, hydrochloride]", "IC50", 39.8),
    ("O=C1NCCC[C@@]12CC[C@@H](c1cc(-c3ccc(C(F)(F)F)cc3)ccn1)N2 [Example 48, hydrochloride]", "IC50", 25.1),
    ("COc1ccc(-c2ccnc([C@H]3CC[C@@]4(CCN(C)C4=O)N3)c2)cc1OC [Example 163, hydrochloride]", "IC50", 7940),
    ("COCc1cccc(-c2ccnc([C@H]3CC[C@@]4(CCN(C)C4=O)N3)c2)c1 [Example 168, hydrochloride]", "IC50", 316),
    ("CN1CC[C@@]2(CC[C@H](c3cc(-c4ccc(Cl)cc4)ccn3)N2)C1=O [Example 13, hydrochloride]", "IC50", 25.1),
]

====

Assayed Target: hNaV1.7 (Homo sapiens)
Construct: expressed in transfected cells; host or cells: HEK293
Test Details: QPatch NaV1.7 assay (whole-cell patch clamp, QPatch16x)
Type: cell-based
Condition Set: holding voltage −90 mV (most channels closed), HEK293-hNaV1.7 cells, read-out: QP Nav1.7 −90 mV pIC50 (converted)
Where a name gives a salt, the structure may show the parent alone.
Lab note: anything with IC50 below 50 µM is marked met; values at 50 µM or higher are marked not met.

# Compound, Assayed Target, Category
data = [
    ("Cc1ccnn1-c1ccc(F)c(-c2ccnc([C@H]3CC[C@@]4(CCN(C)C4=O)N3)c2)c1 [Example 193, hydrochloride]", "hNaV1.7 (Homo sapiens)", "not met"),
    ("CN1CC[C@@]2(CC(F)(F)C(c3cc(-c4ccc(C(F)(F)F)cc4)ccn3)N2)C1=O (mixture of isomers) [Example 240, hydrochloride]", "hNaV1.7 (Homo sapiens)", "met"),
    ("Cc1cc(-c2ccc(C(F)(F)F)cc2)cc([C@@H]2CC[C@]3(CCCNC3=O)N2)n1 [Example 98, hydrochloride]", "hNaV1.7 (Homo sapiens)", "met"),
    ("CCOc1ccc(F)c(-c2ccnc([C@@H]3CC[C@]4(CCCNC4=O)N3)c2)c1 [Example 106, hydrochloride]", "hNaV1.7 (Homo sapiens)", "met"),
    ("CN1CCC[C@]2(CC[C@H](c3cc(-c4ccc(F)cc4)ccn3)N2)C1=O [Example 74, hydrochloride]", "hNaV1.7 (Homo sapiens)", "not met"),
    ("COc1cc(C(F)(F)F)ccc1-c1cc(C)nc([C@@H]2CC[C@@]3(CCN(C)C3=O)N2)c1 [Example 122, hydrochloride]", "hNaV1.7 (Homo sapiens)", "met"),
]

====

Assayed Target: hNaV1.7 (Homo sapiens, UniProt Q15858)
Construct: expressed in transfected cells; host or cells: HEK293
Test Details: QPatch NaV1.7 assay (whole-cell patch clamp, QPatch16x)
Assay type: cell-based
Condition Set: holding voltage −90 mV (most channels closed), HEK293-hNaV1.7 cells, read-out: QP Nav1.7 −90 mV pIC50 (converted)
Where a name gives a salt, the structure may show the parent alone.
// assign true if IC50 falls strictly below 100 µM, else false (ties count as false)

# Compound, Category
records = [
    ("CCOc1ccc(F)c(-c2cc([C@H]3CC[C@]4(CCN(C)C4=O)N3)nc(C)c2C)c1 [Example 141, hydrochloride]", "true"),
    ("CCOc1ccc(F)c(-c2ccnc([C@H]3CC[C@@]4(CCN(C)C4=O)N3)c2C)c1 [Example 215, hydrochloride]", "false"),
    ("CCOc1ccc(F)c(-c2cc([C@H]3CC[C@@]4(CCN(C)C4=O)N3)ncc2F)c1 [Example 223, hydrochloride]", "false"),
    ("CN1[C@H](c2cc(-c3ccc(C(F)(F)F)cc3)ccn2)CC[C@]12CCCNC2=O [Example 230, hydrochloride]", "true"),
    ("Cc1ccc(-c2cc(C)nc([C@H]3CC[C@@]4(CCN(C)C4=O)N3)c2)cc1 [Example 87, hydrochloride]", "false"),
    ("CCOc1cc(-c2ccnc([C@@H]3CC[C@@]4(CCN(C)C4=O)N3)c2)c(F)cc1C [Example 150, hydrochloride]", "false"),
    ("Cc1cc(-c2ccc(C(F)(F)F)cc2)cc([C@H]2CC[C@@]3(CCCNC3=O)N2)n1 [Example 99, hydrochloride]", "true"),
]
